Task for the reader: assign each of the following molecules its reported Herbicidal effects Se.
# Tested on: green foxtail (Se)
# Test method notes: Test Example 4: crop plant selectivity by upland field soil treatment (cotton), herbicidal effects
# Format: in vivo
# Parameters: scale not given here
# Applied conditions: dose 1.6 g ai/10 a, evaluated 21st day after application

Below, each entry is followed by its recorded Herbicidal effects Se result.
{"Molecule": "COCc1cc2c(-c3ccc(C(F)(F)F)n(C)c3=O)c(F)cc(Cl)c2o1 [Compound No. 4-4]", "Herbicidal effects Se": 5}
{"Molecule": "C#CC(C)Oc1cc(Cl)cc(F)c1-c1ccc(C(F)(F)F)n(C)c1=O (centres unmarked) [1′-5]", "Herbicidal effects Se": 4}
{"Molecule": "C#CCOc1cc(-c2ccc(C(F)(F)F)n(N)c2=O)c(F)cc1Cl [1-178]", "Herbicidal effects Se": 5}
{"Molecule": "C#CC(C)Oc1cc(-c2ccc(C(F)(F)F)n(C)c2=O)c(F)cc1Cl (centres unmarked) [1-17]", "Herbicidal effects Se": 5}

Here's the next entry for you.
Problem: Look up Herbicidal effects Se for this molecule: CCc1cc2c(-c3cn(C)c(C(F)(F)F)cc3=O)c(F)cc(Cl)c2o1 [Compound 9-2]
Result: 5

----------
# System: pale smartweed (Po)
# Test method notes: Test Example 5: crop plant selectivity by upland field soil treatment (wheat), herbicidal effects
# Assay type: in vivo
# Set-up: scale not given here
# Applied conditions: dose 6.3 g ai/10a, 21st day after application
Measure name: Herbicidal effects Po
One number for each entry.

Below, each entry is followed by its recorded Herbicidal effects Po result.
{"Compound": "Cc1cc2c(-c3ccc(C(F)(F)F)n(C)c3=O)c(F)cc(Cl)c2o1 [Compound 4-1]", "Value reported": 5}
{"Compound": "CCCc1cc2c(-c3ccc(C(F)(F)F)n(C)c3=O)c(F)cc(Cl)c2o1 [Compound 4-3]", "Value reported": 5}
{"Compound": "C=CC(C)Oc1cc(-c2ccc(C(F)(F)F)n(C)c2=O)c(F)cc1Cl (stereo not drawn) [Compound 1-182]", "Value reported": 5}
{"Compound": "Cn1c(C(F)(F)F)ccc(-c2cc(OCC(F)(F)F)c(Cl)cc2F)c1=O [1-155]", "Value reported": 5}

List Herbicidal effects Po for every entry below, keeping the order given.
1. Cn1c(C(F)(F)F)ccc(-c2c(F)cc(Cl)c3occc23)c1=O [Compound No. 4-28]
2. C=CCOc1cc(-c2ccc(C(F)(F)F)n(C)c2=O)c(F)cc1Cl [1-16]
3. Cn1c(C(F)(F)F)ccc(-c2cc(OCC3CC3)c(Cl)cc2F)c1=O [1-160]
4. C#CCOc1cc(Cl)cc(F)c1-c1ccc(C(F)(F)F)n(C)c1=O [1′-4]

Result:
1: 5; 2: 5; 3: 5; 4: 5

Problem: Look up Herbicidal effects Po for this compound: CCc1cc2c(Cl)cc(F)c(-c3ccc(C(F)(F)F)n(C)c3=O)c2o1 [Compound 5-2]
Result: 5

----------
Task for the reader: assign each of the following compounds its reported Herbicidal effects Po.
# System: pale smartweed (Po)
# Test method notes: Test Example 11: crop plant selectivity by upland field foliage treatment (corn), herbicidal effects
# Assay type: in vivo
# Parameters: scale not given here
# Applied conditions: pale smartweed; foliage treatment; dose 1.6 g ai/10a; evaluated on 14th day after treatment; index per Table 47
Answers are plain numbers.

Below, each entry is followed by its recorded Herbicidal effects Po result.
{"Compound": "C#CC(C)Oc1cc(-c2cn(C)c(C(F)(F)F)cc2=O)c(F)cc1Cl (racemic) [Compound 6-10]", "Measure name": "Herbicidal effects Po", "Value reported": 4}
{"Compound": "CCCc1cc2c(Cl)cc(F)c(-c3ccc(C(F)(F)F)n(C)c3=O)c2o1 [Compound 5-3]", "Measure name": "Herbicidal effects Po", "Value reported": 5}
{"Compound": "C#CCOc1cc(-c2cn(C)c(C(F)(F)F)cc2=O)c(F)cc1Cl [Compound 6-9]", "Measure name": "Herbicidal effects Po", "Value reported": 5}

Here's the next entry for you.
Problem: Please tell me: Herbicidal effects Po of C#CCN1C(=O)COc2cc(F)c(-c3cn(C)c(C(F)(F)F)cc3=O)cc21 [Compound 7-1] , system pale smartweed (Po)?
Result: 5

----------
Task for the reader: assign each of the following compounds its reported Phytotoxicity Ze.
# Tested on: corn (Ze)
# Test method notes: Test Example 11: crop plant selectivity by upland field foliage treatment (corn), phytotoxicity
# Applied conditions: corn; foliage treatment; dose 1.6 g ai/10a; evaluated on 14th day after treatment; index per Table 47
# Source text: (Test on Crop Plant Selectivity by Upland Field Foliage Treatment) In a plastic pot (surface area: 600 cm^2) filled with sand, corn (Ze), pale smartweed (Po), slender amaranth (Am), common lambsquarters (Ch) and China jute (Ab) were sown and cultured in a green house for 2 weeks. […]
Numbers only.

List Phytotoxicity Ze for every entry below, keeping the order given.
1. C#CCOc1cc(-c2cn(C)c(C(F)(F)F)cc2=O)c(F)cc1Cl
2. CC(C)OCc1cc2c(-c3ccc(C(F)(F)F)n(C)c3=O)c(F)cc(Cl)c2o1
3. C#CCN1C(=O)COc2cc(F)c(-c3cn(C)c(C(F)(F)F)cc3=O)cc21

Result:
1. 1
2. 2
3. 2

----------
Task for the reader: assign each of the following compounds its reported Herbicidal effects Ab.
# System: China jute (Ab)
# Test method notes: Test Example 5: crop plant selectivity by upland field soil treatment (wheat), herbicidal effects
# Format: in vivo
# Set-up: scale not given here
# Applied conditions: dose 1.6 g ai/10a, 21st day after application
Give bare numbers.

Below, each entry is followed by its recorded Herbicidal effects Ab result.
{"Compound": "C#CCOc1cc(-c2ccc(C(F)(F)F)n(C)c2=O)c(Cl)cc1Cl", "Measure name": "Herbicidal effects Ab", "Value reported": 5}
{"Compound": "C#CC(C)Oc1cc(-c2cn(C)c(C(F)(F)F)cc2=O)c(F)cc1Cl (racemic)", "Measure name": "Herbicidal effects Ab", "Value reported": 4}
{"Compound": "CON=Cc1cc(-c2ccc(C(F)(F)F)n(C)c2=O)c(F)cc1Cl", "Measure name": "Herbicidal effects Ab", "Value reported": 5}
{"Compound": "Cn1c(C(F)(F)F)ccc(-c2cc(Cl)c(Cl)cc2F)c1=O", "Measure name": "Herbicidal effects Ab", "Value reported": 4}

Here's the next entry for you.
Problem: Look up Herbicidal effects Ab for this compound: COCc1cc2c(-c3ccc(C(F)(F)F)n(C)c3=O)c(F)cc(Cl)c2o1
Result: 5

----------
Task for the reader: assign each of the following compounds its reported melting point.

{"Compound": "Cn1c(C(F)(F)F)ccc(-c2c(F)cc(Cl)c3occc23)c1=O [Compound No. 4-28]", "melting point": "178 to 179 °C"}
{"Compound": "Cn1c(C(F)(F)F)cc(F)c(-c2ccc(Cl)cc2)c1=O [Compound No. 11-2]", "melting point": "120 to 122 °C"}
{"Compound": "CCC(c1cc2c(-c3ccc(C(F)(F)F)n(C)c3=O)c(F)cc(Cl)c2o1)[S+](C)[O-] (stereo not drawn) [Compound No. 4-57]", "melting point": "125 to 127 °C"}
{"Compound": "Cn1c(C(F)(F)F)ccc(-c2cc(S)c(Cl)cc2F)c1=O [Compound No. 1-42]", "melting point": "141 to 142 °C"}
{"Compound": "Cn1c(C(F)(F)F)ccc(-c2cc(NS(C)(=O)=O)c(Cl)cc2F)c1=O [Compound No. 1-60]", "melting point": "113 to 114 °C"}

List melting point for every entry below, keeping the order given.
1. C#CCn1c(=O)oc2cc(Cl)c(-c3ccc(C(F)(F)F)n(C)c3=O)cc21 [Compound No. 3-9]
2. C#CCn1c(=O)sc2cc(F)c(-c3ccc(C(F)(F)F)n(C)c3=O)cc21 [Compound No. 3-1]
3. Cn1c(C(F)(F)F)ccc(-c2c(F)cc(Cl)c3oc(CO)cc23)c1=O [Compound No. 4-5]

Result:
["187 to 189 °C", "150 to 151 °C", "145 to 147 °C"]

List melting point for every entry below, keeping the order given.
1. Cc1cc2c(-c3cn(C)c(C(F)(F)F)cc3=O)c(F)cc(Cl)c2o1 [Compound No. 9-1]
2. CCCC(O)c1cc(-c2ccc(C(F)(F)F)n(C)c2=O)c(F)cc1Cl (stereo not drawn) [Compound No. 1-193]
3. Cn1c(C(F)(F)F)ccc(-c2cc([N+](=O)[O-])c(Cl)cc2F)c1=O [Compound No. 1-58]
4. Cn1c(C(F)(F)F)ccc(-c2cc([N+](=O)[O-])c(F)cc2F)c1=O [Compound No. 1-100]
5. Cc1ccc(-c2ccc(Cl)cc2Cl)c(=O)n1C(F)F [Compound No. 1-8]

Result:
208 to 211 °C
120 to 122 °C
139 to 140 °C
115 to 118 °C
83 to 85 °C

List melting point for every entry below, keeping the order given.
1. Cn1c(C(F)(F)F)ccc(-c2c(F)cc(Cl)c3oc(C(Br)Br)cc23)c1=O [Compound No. 4-27]
2. Cn1c(C(F)(F)F)ccc(-c2c(F)cc(Cl)c3oc(CBr)cc23)c1=O [Compound No. 4-7]
3. Cc1cc2c(Cl)cc(F)c(-c3ccc(C(F)(F)F)n(C)c3=O)c2o1 [Compound No. 5-1]
4. CCOC(=O)c1cc2c(-c3ccc(C(F)(F)F)n(C)c3=O)c(F)cc(Cl)c2o1 [Compound No. 4-6]

Result:
["107 to 109 °C", "142 to 144 °C", "138 to 140 °C", "118 to 120 °C"]

List melting point for every entry below, keeping the order given.
1. Cn1c(C(F)(F)F)ccc(-c2cc(N)c(Cl)cc2F)c1=O [Compound No. 1-59]
2. CC(=O)Sc1cc(-c2ccc(C(F)(F)F)n(C)c2=O)c(F)cc1Cl [Compound No. 1-85]
3. Cn1c(C(F)(F)F)ccc(-c2ccc(Cl)cc2F)c1=O [Compound No. 1-2]
4. Cn1c(C(F)(F)F)ccc(-c2ccc(F)cc2F)c1=O [Compound No. 1-12]
5. Cn1c(C(F)(F)F)ccc(-c2cc(CBr)c(Cl)cc2F)c1=O [Compound No. 1-82]
6. Cn1c(C(F)(F)F)ccc(-c2c(F)cc(Cl)c3oc(C(=O)O)cc23)c1=O [Compound No. 4-26]

Result:
1: 155 to 157 °C; 2: 91 to 92 °C; 3: 103 to 104 °C; 4: 123 to 124 °C; 5: 117 to 118 °C; 6: 233 to 235 °C

List melting point for every entry below, keeping the order given.
1. Cn1cc(-c2cc(OC3CCCC3)c(Cl)cc2F)c(=O)cc1C(F)(F)F [Compound No. 6-14]
2. Nn1c(C(F)(F)F)ccc(-c2ccc(Cl)cc2Cl)c1=O [Compound No. 1-5]
3. Cn1c(C(F)(F)F)cc(=O)c(-c2ccc(Cl)cc2)c1Cl [Compound No. 13-1]
4. Cc1cc(-c2cc(O)c(Cl)cc2F)c(=O)n(C)c1C(F)(F)F [Compound No. 1-79]
5. CSCc1cc2c(-c3ccc(C(F)(F)F)n(C)c3=O)c(F)cc(Cl)c2o1 [Compound No. 4-44]
6. Cn1c(C(F)(F)F)ccc(-c2cc3[nH]c(=O)oc3cc2Cl)c1=O [Compound No. 3-20]

Result:
["152 to 154 °C", "98 to 100 °C", "88 to 90 °C", "207 to 208 °C", "169 to 171 °C", "263 to 265 °C"]

Problem: Look up melting point for this compound: Cn1cc(-c2ccc(Cl)cc2Cl)c(=O)cc1C(F)(F)F [Compound No. 6-3]
Result: 205 to 206 °C
